AC50 values for the molecules below.
# System: HTT mRNA
# protocol: Splicing RT-qPCR assay, HTT canonical (CJ) and alternative (AJ) junction mRNA
# Format: cell-based, human
# details: Homo sapiens, A673 or K562 cells, 24 hours compound treatment, read-out: HTT AJ (AC50, increase in alternative junction mRNA)

{"molecule": "CCn1cc2c(N3CCC(N(C)C)CC3)ccc(C(=O)Nc3cc(F)c4nc(C)cn4c3)c2n1 [Compound 395]", "AC50": "1 to 10 µM"}
{"molecule": "COc1cc(C(=O)Nc2cc(F)c3nc(C)cn3c2)c2nn(C)cc2c1N1CCNCC1 [Compound 311]", "AC50": "> 10 µM"}
{"molecule": "CCn1cc2c(N3CCN4C(=O)OCC4C3)ccc(C(=O)Nc3cc(F)c4nc(C)cn4c3)c2n1 (stereo not drawn) [Compound 415]", "AC50": "0.1 to 1 µM"}
{"molecule": "Cc1cn2cc(NC(=O)c3ccc(N4CCNCC4)c4cn(CC5COC5)nc34)cc(F)c2n1 [Compound 497]", "AC50": "0.1 to 1 µM"}
{"molecule": "Cc1cn2cc(NC(=O)c3ccc(N4CCNCC4)c4cn(Cc5cncnc5)nc34)cc(F)c2n1 [Compound 318]", "AC50": "> 10 µM"}
{"molecule": "Cc1cn2cc(NC(=O)c3ccc(N4CCNCC4)c4cn(CC(C)(F)F)nc34)cc(F)c2n1 [Compound 364]", "AC50": "> 10 µM"}
{"molecule": "Cc1cn2cc(NC(=O)c3ccc(N(C)C4CC(C)(C)NC(C)(C)C4)c4cn(C)nc34)cc(F)c2n1 [Compound 244]", "AC50": "> 10 µM"}
{"molecule": "Cc1cn2cc(NC(=O)c3ccc(N4CCc5[nH]ccc5C4)c4cn(C)nc34)cc(F)c2n1 [Compound 390]", "AC50": "> 10 µM"}
{"molecule": "Cc1cn2cc(NC(=O)c3ccc(N4CCC(NC5CC5)C4)c4cn(C)nc34)cc(F)c2n1 (stereo not drawn) [Compound 296]", "AC50": "> 10 µM"}
{"molecule": "Cc1cn2cc(NC(=O)c3ccc(N4CCN(C)C(C)C4)c4cn(C)nc34)cc(F)c2n1 (stereo not drawn) [Compound 229]", "AC50": "0.1 to 1 µM"}
{"molecule": "CCn1cc2c(N3C[C@@H](C)N[C@@H](C4CC4)C3)ccc(C(=O)Nc3cc(F)c4nc(C)cn4c3)c2n1 [Compound 616]", "AC50": "1 to 10 µM"}
{"molecule": "CN[C@@H]1CCN(c2ccc(C(=O)Nc3cn4cc(C)nc4c(OC)n3)c3nn(C)cc23)C1 [Compound 441]", "AC50": "1 to 10 µM"}
{"molecule": "Cc1cn2cc(NC(=O)c3ccc(N4CCNCC4)c4cn(C(C)C)nc34)cc(F)c2n1 [Compound 290]", "AC50": "> 10 µM"}
{"molecule": "Cc1cn2cc(NC(=O)c3ccc(N4CCC(NC(C)(C)C)C4)c4cn(C)nc34)cc(F)c2n1 (stereo not drawn) [Compound 249]", "AC50": "> 10 µM"}
{"molecule": "COCCn1cc2c(N3C[C@@H](C)N[C@@H](C)C3)ccc(C(=O)Nc3cc(F)c4nc(C)cn4c3)c2n1 [Compound 306]", "AC50": "1 to 10 µM"}

----------
# Test system: HTT mRNA
# protocol: Splicing RT-qPCR assay, HTT canonical (CJ) and alternative (AJ) junction mRNA
# Assay type: cell-based, human
# details: Homo sapiens, Table 3B, canonical junction mRNA, read-out: HTT CJ (IC50, decrease in CJ mRNA)
# Experimental: Compounds described herein were used to modulate RNA transcript abundance in cells. The expression of a target mRNA was measured by detecting the formation of an exon-exon junction in the canonical transcript (CJ). A compound mediated exon-inclusion event was detected by observing an increase in formation of a new junction with an alternative exon (AJ). Real-time qPCR assays were used to detect these splicing switches and interrogate the potency of various compounds towards different target genes. […]
pIC50: −log10 of the molar value.
pIC50 values for the compounds below.

{"compound": "Cc1cn2cc(NC(=O)c3ccc(N4CC[C@@H](NC5CC5)C4)c4cc(C)nn34)cc(F)c2n1 [Compound 963]", "test-target": "HTT mRNA", "pIC50": "5.00 to 6.00"}
{"compound": "Cc1cn2cc(NC(=O)c3cnc(N4CCC(NC5CC5)C4)c4cn(C)nc34)cc(F)c2n1 (centres unmarked) [Compound 966]", "test-target": "HTT mRNA", "pIC50": "> 7.00"}
{"compound": "Cc1cn2cc(NC(=O)c3ccc(N4CC[C@@H](NC5CC5)C4)c4nc(C)nn34)cc(F)c2n1 [Compound 958]", "test-target": "HTT mRNA", "pIC50": "6.00 to 7.00"}
{"compound": "CCn1cc2c(N3C[C@@H](C)N[C@@H](C)C3)ncc(C(=O)Nc3cc(F)c4nc(C)cn4c3)c2n1 [Compound 952]", "test-target": "HTT mRNA", "pIC50": "6.00 to 7.00"}
{"compound": "CCNC1CCN(c2ccc(C(=O)Nc3cc(F)c4nc(C)cn4c3)n3nc(C(C)O)cc23)C1 (centres unmarked) [Compound 961]", "test-target": "HTT mRNA", "pIC50": "6.00 to 7.00"}
{"compound": "Cc1cn2cc(NC(=O)c3ccc(N4CCNCC4)c4nc(C)nn34)cc(F)c2n1 [Compound 946]", "test-target": "HTT mRNA", "pIC50": "> 7.00"}
{"compound": "CCNC1CCN(c2ccc(C(=O)Nc3cc(F)c4nc(C)cn4c3)c3nc(CC)cn23)C1 (centres unmarked) [Compound 942]", "test-target": "HTT mRNA", "pIC50": "6.00 to 7.00"}
{"compound": "CCc1cc2c(N3CCNCC3)ccc(C(=O)Nc3cc(F)c4nc(C)cn4c3)n2n1 [Compound 960]", "test-target": "HTT mRNA", "pIC50": "6.00 to 7.00"}

----------
# Test system: MYB mRNA
# protocol: Splicing RT-qPCR assay, MYB canonical (CJ) and alternative (AJ) junction mRNA
# Assay type: cell-based, human
# details: Homo sapiens, 24 h, A673 or K562 cells, 24 hours compound treatment, RT-qPCR; read-out: MYB CJ (IC50, decrease in canonical junction mRNA)
test-readout: IC50

{"record-smiles": "CN[C@H]1CCN(c2ccc(C(=O)Nc3cn4cc(C)nc4c(N(C)C)n3)c3nn(C)cc23)C1", "test-target": "MYB mRNA", "test-readout": "IC50", "val": "> 10 µM"}
{"record-smiles": "Cc1cn2cc(NC(=O)c3ccc(N4CC[C@@H](NCc5ncccn5)C4)c4cn(C)nc34)cc(F)c2n1", "test-target": "MYB mRNA", "test-readout": "IC50", "val": "0.1 to 1 µM"}
{"record-smiles": "COc1cc(C(=O)Nc2cc(F)c3nc(C)cn3c2)c2nn(C)cc2c1N1CCNCC1", "test-target": "MYB mRNA", "test-readout": "IC50", "val": "0.1 to 1 µM"}
{"record-smiles": "Cc1cn2cc(NC(=O)c3ccc(N4CCOCC4)c4cn(C)nc34)cc(F)c2n1", "test-target": "MYB mRNA", "test-readout": "IC50", "val": "0.1 to 1 µM"}
{"record-smiles": "Cc1cn2cc(NC(=O)c3ccc(C4CCNCC4)c4ccoc34)cc(F)c2n1", "test-target": "MYB mRNA", "test-readout": "IC50", "val": "0.1 to 1 µM"}
{"record-smiles": "Cc1cn2cc(NC(=O)c3ccc(N4CC[C@@H](NCC5CC5)C4)c4cn(C)nc34)cc(F)c2n1", "test-target": "MYB mRNA", "test-readout": "IC50", "val": "< 0.1 µM"}
{"record-smiles": "Cc1cn2cc(NC(=O)c3ccc(N4CCNCC4)c4cn(CC(C)(C)O)nc34)cc(F)c2n1", "test-target": "MYB mRNA", "test-readout": "IC50", "val": "1 to 10 µM"}
{"record-smiles": "Cc1cn2cc(NC(=O)c3c(F)cc(N4CC[C@@H](NC5(C#N)CC5)C4)c4cn(C)nc34)cc(F)c2n1", "test-target": "MYB mRNA", "test-readout": "IC50", "val": "0.1 to 1 µM"}

----------
# Test system: Target C mRNA
# protocol: Splicing RT-qPCR gene panel, Target C canonical junction (CJ) mRNA
# Assay type: cell-based, human
# details: Homo sapiens, Tables 4A/4B, read-out: Target C (IC50, decrease in CJ mRNA, gene panel)
Counter-ions that a name gives are not always drawn.
IC50 values for the molecules below.

{"molecule": "Cc1cn2nc(-c3ccc(C(=O)NC4CCNCC4)c4oc(C)cc34)cc(C)c2n1", "IC50": "> 10 µM"}
{"molecule": "CCNC1CCN(c2cc(F)c(C(=O)Nc3cc(F)c4nc(C)cn4c3)c3nn(C)cc23)CC1", "IC50": "0.1 to 1 µM"}
{"molecule": "Cc1cn2nc(NC(=O)c3ccc(C4CCNCC4)c4ccoc34)cc(C)c2n1", "IC50": "> 10 µM"}
{"molecule": "Cc1cn2cc(NC(=O)c3ccc(N4CCNC5(CC5)C4)c4cc(C)oc34)cc(F)c2n1", "IC50": "> 10 µM"}
{"molecule": "Cc1cn2cc(NC(=O)c3ccc(N4CC[C@@H](NC5CC5)C4)c4cn(C)nc34)cc(F)c2n1", "IC50": "> 10 µM"}
{"molecule": "Cc1cc2c(N3CCNCC3)ccc(C(=O)Nc3cc(F)c4nc(C)sc4c3)c2o1", "IC50": "> 10 µM"}
{"molecule": "Cc1cn2cc(NC(=O)c3ccc(N4CCNCC4)c4cn(C5CCOCC5)nc34)cc(F)c2n1 [Compound 304, trifluoroacetic acid salt]", "IC50": "> 10 µM"}
{"molecule": "Cc1cn2cc(NC(=O)c3ccc(N4CCNCC4)c4cc(C)oc34)ncc2n1", "IC50": "1 to 10 µM"}
